experiment.summary: NCI Yeast Anticancer Drug Screen. Data for the mec2-1 strain (AID 157)
condition.context: S. cerevisiae mec2-1 strain, at 5.0 µM (retest, dose inferred, filed as 0.5), stronger effect = higher value
About 79,000 compounds went through this panel and 15% of them were active in at least one assay; those are over-represented in the sample as a whole.
Note to self: class labels come from recorded growth inhibition, ranges listed here: group 1 = under 9%, group 2 = from 9% up to 20%, group 3 = 20% and over

compound	assigned.class
CC(=O)CC1CCC(=O)/C=C/C(=O)OC(CC(C)=O)CCC(=O)/C=C/C(=O)O1 (stereo not given)	group 2
CC=CCOc1cc(NC(=S)OC(C)C)ccc1Cl (mixture of isomers)	group 2
O=[N+]([O-])c1cccc2c(O)cccc12	group 1
C1=C(c2ccccc2)[P+](c2ccccc2)(c2ccccc2)C=C(c2ccccc2)[P+]1(c1ccccc1)c1ccccc1	group 3
CN(C)C1CCC2C(=C1OC(=O)c1ccccc1)C=Cc1ccccc12 (stereo not given)	group 1

Lookup: Band for the recorded growth inhibition of `CCNc1cc(N)[n+](CC)c2n[nH]c(/N=C/c3cc(Cl)cc(Cl)c3O)c12` ?
Found: group 3

Lookup: Then this compound: `N#Cc1cc2c(cc1Cl)Sc1nccn1S2(=O)=O`
Found: group 1

Lookup: Similarly, CCCCC(Cc1ccccc1)(C(=O)O)c1ccccc1 (stereo not given) ?
Found: group 2

Lookup: Now this one: `CC(=O)CCCOC(C)=O`
Found: group 3

====

For each record, write down the corresponding growth inhibition.
experiment.summary: NCI Yeast Anticancer Drug Screen. Data for the bub3 strain (AID 167)
condition.context: S. cerevisiae bub3 mutant strain, at 5.0 µM (retest, dose inferred, filed as 0.5), stronger effect = higher value
Compounds without any hit were thinned out: in the full panel of roughly 79,000, 15% have a hit.
One number for each entry, in %.

molecule	quantitative.result
CN(Cc1cc(Cl)cc(Cl)c1O)Cc1c(O)ccc2ccccc12	-11

Go through the items and report each one's growth inhibition.
1. C=C(CN(C)C)C(=O)c1ccccc1Cl
2. Clc1ccccc1NN(Cc1ccccn1)c1ccccc1Cl
3. CCOC(=O)/C=C(\NC1CC(OC2C[C@](O)(C(C)=O)Cc3c(O)c4c(c(O)c32)C(=O)c2c(OC)cccc2C4=O)OC(C)C1O)C(=O)OCC (stereo not given in full)

Found:
1: -14; 2: 28; 3: 43

Lookup: # input molecule: CCCCCC(CN(C)C)C(O)/C=C\c1ccccc1 (stereo not given) ; wanted: its growth inhibition
Found: -2

====

experiment.summary: NCI Yeast Anticancer Drug Screen. Data for the sgs1 mgt1 strain (AID 161);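 note: 0% = growth of cultures given vehicle only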
condition.context: S. cerevisiae sgs1 mgt1 strain, at 50.0 µM (retest, dose inferred, filed as 5.0), stronger effect = higher value
The panel holds about 79,000 compounds, 15% with a hit somewhere; the sample as a whole holds those more often.
Kindly supply the reported growth inhibition values for the records listed here.
One number for each entry, in %.

Examples with answers:
compound	test.readout	units	quantitative.result
C#CC(CC(C)C)(CC(C)C)OC(=O)Nc1ccccc1	growth inhibition	%	98
CCOC(=O)Nc1cc(NC(C)/C(=N/O)c2ccccc2)c([N+](=O)[O-])c(N)n1 (stereo not given)	growth inhibition	%	69
CCCCN(CCCC)CCC(O)c1cc2c(c3ccccc13)CCCC2 (stereo not given)	growth inhibition	%	100

Batch of 6 compounds: report growth inhibition for each.
1. CSCCC(NC(=O)C(CCSC)NS(=O)(=O)Cc1ccccc1)C(=O)O (stereo not given)
2. O=C(CCl)[O][Bi]([O]C(=O)CCl)([c]1ccccc1)([c]1ccccc1)[c]1ccccc1
3. CCCCCCCCCCCCCCC(O)C(=O)O (stereo not given)
4. Cc1ccsc1C(=S)Nc1ccc(Cl)c(/C=N/OC(C)C)c1
5. O=C(c1ccc(Cl)c([N+](=O)[O-])c1)c1ccc(Cl)c([N+](=O)[O-])c1
6. c1cc[c]([Sn]([CH]2c3ccccc3-c3ccccc32)([CH]2c3ccccc3-c3ccccc32)[CH]2c3ccccc3-c3ccccc32)cc1

Found:
1. -6
2. 83
3. -33
4. 31
5. 90
6. -4

Lookup: # get_value(readout='growth inhibition', item= `[O-][n+]1ccc(Br)c(/C=C/c2ccccc2)c1` )
Found: 23
